Molecular target: Androgen Receptor (Homo sapiens, UniProt P10275)
Construct: endogenous in cells; host or cells: VCaP cells
Sequence (P10275 whole entry): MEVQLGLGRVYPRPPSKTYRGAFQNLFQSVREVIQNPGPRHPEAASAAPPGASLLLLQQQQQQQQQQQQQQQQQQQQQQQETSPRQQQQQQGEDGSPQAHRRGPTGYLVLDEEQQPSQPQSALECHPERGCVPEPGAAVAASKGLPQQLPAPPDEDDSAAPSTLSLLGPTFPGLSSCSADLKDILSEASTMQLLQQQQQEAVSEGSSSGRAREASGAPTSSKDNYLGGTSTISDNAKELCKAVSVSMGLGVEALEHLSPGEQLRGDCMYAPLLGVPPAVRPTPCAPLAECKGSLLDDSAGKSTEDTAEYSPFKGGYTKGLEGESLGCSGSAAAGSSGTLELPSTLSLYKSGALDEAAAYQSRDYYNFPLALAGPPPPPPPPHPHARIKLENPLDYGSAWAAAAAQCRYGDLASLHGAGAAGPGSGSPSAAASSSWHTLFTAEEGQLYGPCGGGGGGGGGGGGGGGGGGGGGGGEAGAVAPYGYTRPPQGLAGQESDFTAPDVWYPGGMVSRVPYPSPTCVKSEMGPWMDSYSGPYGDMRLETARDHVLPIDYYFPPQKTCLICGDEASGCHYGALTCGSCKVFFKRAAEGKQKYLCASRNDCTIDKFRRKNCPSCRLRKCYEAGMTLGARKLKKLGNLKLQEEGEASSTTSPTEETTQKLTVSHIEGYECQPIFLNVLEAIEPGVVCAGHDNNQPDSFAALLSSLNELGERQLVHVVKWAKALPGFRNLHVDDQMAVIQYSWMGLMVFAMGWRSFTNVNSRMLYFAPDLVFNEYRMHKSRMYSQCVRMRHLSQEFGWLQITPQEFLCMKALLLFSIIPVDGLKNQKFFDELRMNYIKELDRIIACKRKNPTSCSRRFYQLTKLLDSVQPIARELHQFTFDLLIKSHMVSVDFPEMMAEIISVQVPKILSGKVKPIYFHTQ
Test: Androgen Receptor ELISA assay (PathScan AR ELISA) in VCaP cells: AR degradation, Dmax and DC50
Type: cell-based
Details: VCaP cells; Table 35; read-out: VCaP DC50
Protocol: 1. Androgen Receptor ELISA Assay. The protocols used with VCaP cells are described below. The androgen receptor ELISA assay was performed using PathScan AR ELISA (Cell Signaling Catalog #12850) according to the following assay steps: […]
MEASURED PARAMETER: DC50

Fill in reported DC50 for this entry: "Cc1ncsc1-c1ccc(CNC(=O)[C@@H]2C[C@@H](O)CN2C(=O)[C@@H](NC(=O)COCCOc2ccc(-c3c(F)cc(C(=O)N[C@H]4C(C)(C)[C@H](Oc5ccc(C#N)c(Cl)c5)C4(C)C)cc3F)cc2)C(C)(C)C)cc1"
< 50 nM

Fill in reported DC50 for this entry: "CC(C)(C)[C@H](NC(=O)COCCCCCNc1ccc(C(=O)N[C@H]2C(C)(C)[C@H](Oc3ccc(C#N)c(Cl)c3)C2(C)C)cc1)C(=O)N1C[C@H](O)C[C@H]1C(=O)NCc1ccc(-c2scnc2N)cc1"
< 50 nM

Fill in reported DC50 for this entry: "Cc1ncsc1-c1ccc([C@H](C)NC(=O)[C@@H]2C[C@@H](O)CN2C(=O)[C@@H](NC(=O)COCCCCCNc2ccc(C(=O)N[C@H]3C(C)(C)[C@H](Oc4ccc(C#N)c(C(F)(F)F)n4)C3(C)C)cc2)C(C)(C)C)cc1"
> 501 nM

Fill in reported DC50 for this entry: "Cc1ncsc1-c1ccc(CNC(=O)[C@@H]2C[C@@H](O)CN2C(=O)[C@@H](NC(=O)CNCCNc2ccc(-c3ccc(C(=O)N[C@H]4C(C)(C)[C@H](Oc5ccc(C#N)c(Cl)c5)C4(C)C)cc3)cn2)C(C)(C)C)cc1"
< 50 nM
